# Tested on: Candida albicans
# method: Antifungal activity against Candida albicans ATCC 10231 assessed as growth inhibition at 15.62 ug/ml after 48 hrs by broth microdilution method
# Format: functional
# experimental-context: ATCC 10231, 48 h
measured-metric: inhibition at 15.62 µg/mL (%)
Supply the numeric figure in %, leaving out any unit text.

Example entries and their recorded answers appear below.
Inquiry: Query: inhibition at 15.62 µg/mL; subject: Nc1nc(N)c2c(n1)NC(c1sc(Cl)nc1Cl)CC(c1ccc(F)cc1)=N2 (configuration not stated)
Reply text: 17.9

Inquiry: Query: inhibition at 15.62 µg/mL; subject: Nc1nc(N)c2c(n1)NC(c1sc(Cl)nc1Cl)CC(c1ccccc1)=N2 (configuration not stated)
Reply text: 62

Inquiry: Query: inhibition at 15.62 µg/mL; subject: COc1cc(C2=Nc3c(N)nc(N)nc3NC(c3sc(Cl)nc3Cl)C2)cc(OC)c1OC (configuration not stated)
Reply text: 0

More entries:
Inquiry: Query: inhibition at 15.62 µg/mL; subject: Cc1ccc(C2=Nc3c(N)nc(N)nc3NC(c3sc(Cl)nc3Cl)C2)cc1 (configuration not stated)
Reply text: 1.41

Inquiry: Query: inhibition at 15.62 µg/mL; subject: Nc1nc(N)c2c(n1)NC(c1sc(Cl)nc1Cl)CC(c1ccc(Cl)cc1)=N2 (configuration not stated)
Reply text: 100

Inquiry: Query: inhibition at 15.62 µg/mL; subject: Nc1nc(N)c2c(n1)NC(c1sc(Cl)nc1Cl)CC(c1ccc3c(c1)OCO3)=N2 (configuration not stated)
Reply text: 0

Inquiry: Query: inhibition at 15.62 µg/mL; subject: COc1ccc(C2=Nc3c(N)nc(N)nc3NC(c3sc(Cl)nc3Cl)C2)cc1 (configuration not stated)
Reply text: 15.7
